activity on C, 0-4 scale values by entry
- Tested on: chenopodium album L.
- Assay method text: herbicidal activity, soil treatment one day after sowing
- Type: in vivo
- Condition summary: 4 kg/ha

Lookup: Report activity on C, 0-4 scale for CCC(C)N(C(=O)c1cccc(I)c1)C(C)CC (centres unmarked) [PA491, 3-iodo-N,N-di-sec.butyl-benzamide] please.
Found: 2-3

Lookup: Also, CCCN(CCC)C(=O)c1cc(Cl)cc(Cl)c1Cl [PA303, reference compound] please.
Found: 1-2

Lookup: Also, CCC(C)N(C(=O)c1ccc(Cl)c(Br)c1)C(C)CC (centres unmarked) [PA489] please.
Found: 1-2

Lookup: Also, CCC(C)N(C(=O)c1ccc(Cl)cc1Cl)C(C)CC (centres unmarked) [PA214, 2,4-dichloro-N,N-di-sec.butyl-benzamide] please.
Found: 1-2

====

activity on P, 0-4 scale values by entry
- Test system: oryza sativa L. (rice)
- Assay method text: activity on agrarian species, soil treatment one day after sowing
- Type: in vivo
- Condition summary: in vivo
Just the number, please.

CCC(C)N(C(=O)c1cc(Cl)ccc1Cl)C(C)CC (stereo not drawn) [PA412, 2,5-dichloro-N,N-di-sec.butyl-benzamide]; 0
CCCCN(C(=O)c1ccc(Cl)c(Cl)c1)C(C)CC (stereo not drawn); 0
CCC(C)N(C(=O)c1cccc(I)c1)C(C)CC (stereo not drawn) [PA491, 3-iodo-N,N-di-sec.butyl-benzamide]; 0
CCCN(CCC)C(=O)c1cc(Cl)cc(Cl)c1Cl [PA303, reference compound]; 3
CCC(C)N(C(=O)c1ccc(Cl)cc1Cl)C(C)CC (stereo not drawn) [PA214, 2,4-dichloro-N,N-di-sec.butyl-benzamide]; 0

Lookup: Report activity on P, 0-4 scale for CCN(CC)C(=O)c1cc(Cl)cc(Cl)c1 [PA291, 3,5-dichloro-N,N-diethyl-benzamide, reference compound] please.
Found: 4

Lookup: Also, CCC(C)N(C(=O)c1cccc(Br)c1)C(C)CC (stereo not drawn) [PA337/3/Br, 3-bromo-N,N-di-sec.butyl-benzamide] please.
Found: 0

====

activity on E, 0-4 scale values by entry
- Test system: setaria glauca L.
- Assay method text: herbicidal activity, soil treatment one day after sowing
- Format: in vivo
- Condition summary: 6 kg/ha

// known answers, use as guide
CCN(CC)C(=O)c1cccc(C)c1 [PA383, 3,methyl-N,N-diethyl-benzamide, reference compound]; 0-1
CCCCN(CC)C(=O)c1ccc(Cl)c(Cl)c1 [PA325, 3,4-dichloro-N-ethyl,N-n.butyl-benzamide, reference compound]; 0-1

Lookup: Report activity on E, 0-4 scale for CCC(C)N(CC)C(=O)c1ccc(Cl)c(Cl)c1 (stereo not drawn) [PA631] please.
Found: 3

====

- Tested on: chenopodium album L.
- Assay method text: herbicidal activity, soil treatment one day after sowing
- Format: in vivo
- Condition summary: 4 kg/ha
activity on C, 0-4 scale values by entry

// known answers, use as guide
CCC(C)N(C(=O)c1cc(Cl)cc(Cl)c1)C(C)CC (stereo not shown) [PA234, 3,5-dichloro-N,N-di-sec.butyl-benzamide]; 2-1
CCC(C)N(C(=O)c1cc(Cl)cc(Cl)c1Cl)C(C)CC (stereo not shown); 1-2

Lookup: Entry CCC(C)N(C(=O)c1ccc(C)c(Cl)c1)C(C)CC (stereo not shown) , system chenopodium album L.: what activity on C, 0-4 scale was measured?
Found: 2-3

Lookup: Also, CCC(C)N(C(=O)c1ccc(Cl)c(Cl)c1)C(C)CC (stereo not shown) [PA106, 3,4-dichloro-N,N-di-sec.butyl-benzamide] please.
Found: 1-2
